Target: Melanin Concentrating Hormone Receptor 1 (MCHR1) (Homo sapiens)
Construct: expressed in transfected cells
Assay: MCHR1 Receptor Activation Assay (GTPγ^35S)
Type: biochemical
Conditions: read-out: GTPγ^35S IC50
Structures can show the parent of a compound that is named as a salt.
MEASUREMENT_KIND: IC50 (nM)

[A] Cc1ccc(-c2nnc(C(=O)N3CC(Oc4ccc(CN5CCCC5)cc4)C3)o2)cc1 [Example 6, hydrochloride]
[B] COC1CN(Cc2ccc(SC3CN(C(=O)c4nnc(-c5ccccc5)o4)C3)cc2)C1
Thinking about recorded IC50 values, which is higher, A or B ? Refer to your chosen entry by its label in the reply.
A

[I] COc1ccc(-c2nnc(C(=O)N3CC(Oc4ccc(CN5CCC(C)(CO)C5)cc4)C3)o2)cc1 (centres unmarked)
[II] O=C(c1nnc(-c2ccccc2)o1)N1CC(Oc2ccc(CN3CCCC3)cc2)C1
Thinking about recorded IC50 values, which is higher, I or II ? Refer to your chosen entry by its label in the reply.
II
(II: 27 nM, I: 17 nM)

* * *

Target: Melanin Concentrating Hormone Receptor 1 (MCHR1) (Homo sapiens, UniProt Q99705)
Construct: expressed in transfected cells
Sequence (Q99705 whole entry): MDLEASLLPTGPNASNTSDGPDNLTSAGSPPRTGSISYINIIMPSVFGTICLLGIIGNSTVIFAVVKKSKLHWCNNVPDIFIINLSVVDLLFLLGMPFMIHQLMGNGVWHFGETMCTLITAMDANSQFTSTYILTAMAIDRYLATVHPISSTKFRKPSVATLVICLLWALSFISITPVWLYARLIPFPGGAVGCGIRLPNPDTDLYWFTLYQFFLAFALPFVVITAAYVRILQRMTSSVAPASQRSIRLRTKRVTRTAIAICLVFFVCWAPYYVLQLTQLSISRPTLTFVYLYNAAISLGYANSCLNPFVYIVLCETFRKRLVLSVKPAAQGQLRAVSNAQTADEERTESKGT
Assay: MCHR1 Receptor Activation Assay (GTPγ^35S)
Assay type: biochemical
Conditions: read-out: GTPγ^35S IC50
MEASUREMENT_KIND: IC50 (nM)

COc1ccc(-c2nnc(C(=O)N3CC(Oc4ccc(CN5CCCC(C)(O)CC5)cc4)C3)o2)cc1 (stereo not shown) | 17
COc1ccc(-c2nnc(C(=O)N3CC(Oc4ccc(CN5CC(C)(O)C5)c(C)c4)C3)o2)cc1 | 23
O=C(c1nnc(-c2ccccc2)o1)N1CC(Oc2ccc(CN3CC(C(F)F)C3)cc2)C1 | 21
CN(Cc1ccc(SC2CN(C(=O)c3nnc(-c4ccccc4)o3)C2)cc1)CC1CCOC1 (stereo not shown) | 20
COc1ccc(-c2nnc(C(=O)N3CC(Oc4ccc(CN(C)C)c(F)c4F)C3)o2)cc1 | 27
COc1ccc(-c2nnc(C(=O)N3CC(Oc4ccc(CN(C)C)c(C)c4)C3)o2)cc1 | 24
CN(C)Cc1ccc(OC2CN(C(=O)c3nnc(-c4ccc(C(F)(F)F)cc4)o3)C2)cc1 | 19
